# System: normal human lung fibroblasts (Wi-38)
# MEASUREMENT NOTES: MTT cytotoxicity screening on normal human lung fibroblasts (Wi-38)
# Assay type: cell-based
# DETAILS: Wi-38, 72 h, MTT; concentration at 100% cell viability; mean ± SEM
Measured EC100 values are reported for all entries that follow.
Use nM as the unit, but write only the number.

Fetch value of EC100 on normal human lung fibroblasts (Wi-38) for CC(=O)OCC(OC(C)=O)C(OC(C)=O)C(OC(C)=O)C1N(C(C)=O)N(C(C)=O)c2nc(C)cc(=O)n21 (stereo not drawn) [Compound 6] .
353.7

Fetch value of EC100 on normal human lung fibroblasts (Wi-38) for Cc1cc(=O)[nH]c(NN=C[C@H](O)[C@@H](O)[C@@H](O)[C@H](O)CO)n1 [Compound 5] .
48.16

Fetch value of EC100 on normal human lung fibroblasts (Wi-38) for Cc1cc(=O)[nH]c(NN=C[C@H](O)[C@@H](O)[C@H](O)CO)n1 [Compound 2] .
46.35

====

Measured melting point values are reported for all entries that follow.

COMPOUND | MEASUREMENT
CC(=O)OCC(OC(C)=O)C(OC(C)=O)C(OC(C)=O)C(OC(C)=O)C1N(C(C)=O)N(C(C)=O)c2nc(C)cc(=O)n21 (stereo not shown) [Compound 7] | 97 to 100 °C
CC(=O)OCC(OC(C)=O)C(OC(C)=O)C(OC(C)=O)C1N(C(C)=O)N(C(C)=O)c2nc(C)cc(=O)n21 (stereo not shown) [Compound 6] | 112 to 114 °C

Kindly consider the entry below.
Please give measured melting point of the following entry: Cc1cc(=O)[nH]c(NN=C[C@H](O)[C@@H](O)[C@@H](O)[C@H](O)CO)n1 [Compound 5]
213 to 214 °C

====

# System: normal human lung fibroblasts (Wi-38)
# MEASUREMENT NOTES: MTT cytotoxicity screening on normal human lung fibroblasts (Wi-38)
# Type: cell-based
# DETAILS: Wi-38, 72 h, MTT; concentration at 100% cell viability; mean ± SEM
Measured EC100 values are reported for all entries that follow.
Use nM as the unit, but write only the number.

Fetch value of EC100 on normal human lung fibroblasts (Wi-38) for COc1cccc2c1C(=O)c1c(O)c3c(c(O)c1C2=O)C[C@@](O)(C(=O)CO)C[C@@H]3O[C@H]1C[C@H](N)[C@H](O)[C@H](C)O1 [Doxorubicin, doxorubicin, reference compound] .
11.50

Fetch value of EC100 on normal human lung fibroblasts (Wi-38) for Cc1cc(=O)[nH]c(NN=C[C@@H](O)[C@@H](O)[C@H](O)[C@H](O)CO)n1 [Compound 4] .
64.61

Fetch value of EC100 on normal human lung fibroblasts (Wi-38) for Cc1cc(=O)[nH]c(NN=C[C@H](O)[C@@H](O)[C@H](O)[C@H](O)CO)n1 [Compound 3] .
84.54

====

# System: Caco-2
# MEASUREMENT NOTES: MTT anticancer activity, Caco-2
# Assay type: cell-based, human
# DETAILS: Homo sapiens; Caco-2, 72 h, MTT; mean ± SEM
Threshold check on IC50: strictly below 100 nM is Criterion met; on or above 100 nM is Criterion not met.

COMPOUND | EXPERIMENTAL TARGET | CLASS NAME
Cc1cc(=O)[nH]c(NN=C[C@@H](O)[C@@H](O)[C@H](O)[C@H](O)CO)n1 | Caco-2 | Criterion not met
CC(=O)OCC(OC(C)=O)C(OC(C)=O)C(OC(C)=O)C1N(C(C)=O)N(C(C)=O)c2nc(C)cc(=O)n21 (stereo not shown) | Caco-2 | Criterion met
Cc1cc(=O)[nH]c(NN=C[C@H](O)[C@@H](O)[C@@H](O)[C@H](O)CO)n1 | Caco-2 | Criterion not met
Cc1cc(=O)[nH]c(NN=C[C@H](O)[C@@H](O)[C@H](O)CO)n1 | Caco-2 | Criterion not met

Please determine if CC(=O)OCC(OC(C)=O)C(OC(C)=O)C(OC(C)=O)C(OC(C)=O)C1N(C(C)=O)N(C(C)=O)c2nc(C)cc(=O)n21 (stereo not shown) is below 100 nM in terms of IC50.
Criterion met

Please determine if COc1cccc2c1C(=O)c1c(O)c3c(c(O)c1C2=O)C[C@@](O)(C(=O)CO)C[C@@H]3O[C@H]1C[C@H](N)[C@H](O)[C@H](C)O1 [Doxorubicin, doxorubicin, reference compound] is below 100 nM in terms of IC50.
Criterion met

Please determine if "Cc1cc(=O)[nH]c(NN=C[C@H](O)[C@@H](O)[C@H](O)[C@H](O)CO)n1" is below 100 nM in terms of IC50.
Criterion met

====

# EXPERIMENTAL TARGET: MMP-2 (Homo sapiens, UniProt P08253)
# Construct: read from the 'ab' catalogue number) ab139446
# Sequence (P08253 110-446 limits assumed): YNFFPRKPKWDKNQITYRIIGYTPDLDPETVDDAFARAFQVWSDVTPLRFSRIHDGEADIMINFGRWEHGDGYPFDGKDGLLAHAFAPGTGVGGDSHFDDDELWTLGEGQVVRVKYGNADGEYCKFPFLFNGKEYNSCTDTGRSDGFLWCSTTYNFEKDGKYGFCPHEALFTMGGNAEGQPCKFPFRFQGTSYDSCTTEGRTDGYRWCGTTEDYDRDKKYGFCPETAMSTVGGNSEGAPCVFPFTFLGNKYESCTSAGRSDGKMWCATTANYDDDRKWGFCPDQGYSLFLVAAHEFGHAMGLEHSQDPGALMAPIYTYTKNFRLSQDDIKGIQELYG
# MEASUREMENT NOTES: MMP-2 inhibitor screening kit (colorimetric)
# Assay type: biochemical
# DETAILS: in vitro MMP-2
MEASURED PROPERTY: IC50 (nM)
Use nM as the unit, but write only the number.

Please give measured IC50 of the following entry: "COc1ccc(S(=O)(=O)N(CC(=O)NO)CC(C)C)cc1"
298

====

# System: HepG-2
# MEASUREMENT NOTES: MTT anticancer activity, HepG-2
# Format: cell-based, human
# DETAILS: ratio IC50 on normal cells (Wi-38) / IC50 on HepG-2
Threshold check on SI: strictly below 0.03 is t; on or above 0.03 is f.

Please review the following examples before continuing.
MOLECULE | CLASS NAME
COc1cccc2c1C(=O)c1c(O)c3c(c(O)c1C2=O)C[C@@](O)(C(=O)CO)C[C@@H]3O[C@H]1C[C@H](N)[C@H](O)[C@H](C)O1 [Doxorubicin, doxorubicin, reference compound] | f
Cc1cc(=O)[nH]c(NN=C[C@H](O)[C@@H](O)[C@H](O)CO)n1 | t
CC(=O)OCC(OC(C)=O)C(OC(C)=O)C(OC(C)=O)C1N(C(C)=O)N(C(C)=O)c2nc(C)cc(=O)n21 (stereo not shown) | f

Please determine if CC(=O)OCC(OC(C)=O)C(OC(C)=O)C(OC(C)=O)C(OC(C)=O)C1N(C(C)=O)N(C(C)=O)c2nc(C)cc(=O)n21 (stereo not shown) is below 0.03 in terms of SI.
f

Please determine if "Cc1cc(=O)[nH]c(NN=C[C@H](O)[C@@H](O)[C@H](O)[C@H](O)CO)n1" is below 0.03 in terms of SI.
f

====

MEASURED PROPERTY: melting point

QUERY SMILES | melting point
CC(=O)OC[C@@H](OC(C)=O)[C@@H](OC(C)=O)[C@H](OC(C)=O)[C@H](OC(C)=O)[C@@H]1N(C(C)=O)N(C(C)=O)c2nc(C)cc(=O)n21 | 100 to 102 °C
Cc1cc(=O)[nH]c(NN=C[C@@H](O)[C@@H](O)[C@H](O)[C@H](O)CO)n1 | 220 to 222 °C
Cc1cc(=O)[nH]c(NN=C[C@H](O)[C@@H](O)[C@H](O)CO)n1 | 215 to 216 °C

Kindly consider the entry below.
Please give measured melting point of the following entry: "Cc1cc(=O)[nH]c(NN=C[C@H](O)[C@@H](O)[C@H](O)[C@H](O)CO)n1"
240 to 242 °C
